Tested on: chickweed
Protocol text: Test C postemergence herbicide test
Type: in vivo, Stellaria media
Study conditions: 62 g ai/ha, scale 0 to 100 (0 no effect, 100 complete control)
# Plant response rating, Chickweed per entry
The response must contain the number and no unit.

INSERT INTO results (compound, endpoint_value) VALUES
  ('O=C1NCC(c2ccc(C(F)(F)F)cc2)C1C(=O)Nc1cccc(F)c1F (stereo not shown)', 85),
  ('Cc1ccccc1NC(=O)C1C(=O)NCC1c1cccc(C(F)(F)F)c1 (racemic)', 0),
  ('O=C1NCC(c2ccc(F)c(Cl)c2)C1C(=O)Nc1ccccc1F (stereo not shown)', 10);

# ---- query compound ----
Check chickweed data and give Plant response rating, Chickweed for O=C1NCC(c2cc(F)c(F)c(F)c2)C1C(=O)Nc1cccc(F)c1F (stereo not shown) .
30

The reported numbers originate from patent US10294202B2.
